Reported GI50 values for the following molecules.
test system: NCI-H460; assay: NCI tumour cell line growth inhibition, 48 h
Calls of active or inactive are those of the source. Rule as the data show it: active = GI50 up to about 1.1 µM and inactive = higher.

Example entries and their recorded answers appear below.
CC(C)(CCCCC(C)(C)C1NC(=O)N1)C1NC(=O)N1 | > 10 µM (inactive)
C=CC1(c2ccc3ccccc3c2)OCC(CC)O1 (stereo unspecified) | 48.2 µM (inactive)
Cn1c2ccccc2c(=NNc2ccc(S(=O)(=O)N=C(N)N)cc2)c2ccccc21 | 3.37 µM (inactive)
CCN(CC)CCNC(=O)c1nn(C)c(=S)[nH]c1=S | > 100 µM (inactive)
COc1cc2c(/C=C3/C(=O)Nc4cccc(Cl)c43)c(Cl)[nH]c2cc1C | 1.72 µM (inactive)

Okay, now this molecule:
Please provide the recorded GI50 for `O=P(Oc1ccc2ccccc2c1)(N1CC1)N1CC1` , tested on NCI-H460. 8.99 µM (inactive)

---

test system: UACC-257; experiment: NCI tumour cell line growth inhibition, 48 h
Active and inactive are the calls of the source. Rule as the data show it: active = GI50 up to about 1.1 µM and inactive = higher.
Readings of GI50 for the listed molecules

Some molecules with known GI50 results, for comparison:
CCOC1OC(CO[Si](C)(C)C(C)(C)C)C(O)CC1n1ccc(=O)[nH]c1=O (centres undefined) | > 100 µM (inactive)
Cc1ccc(S(=O)(=O)ON2C(=O)c3c(N)c(C#N)c(-c4ccccc4)c(-c4ccccc4)c3C2=O)cc1 | 18.6 µM (inactive)
N#C[BH2-][n+]1cn(C2CC(O)C(COP(=O)(O)OC3CC(n4cnc5c(=O)[nH]c(N)nc54)OC3CO)O2)c2nc(N)[nH]c(=O)c21 (centres undefined) | > 100 µM (inactive)
CC1(C)CC(=O)C(CCC(=O)/C=C/c2ccccc2)C(=O)C1 | > 100 µM (inactive)
C=CCOC(C)n1c(C)c(Br)c(=O)[nH]c1=O (centres undefined) | > 100 µM (inactive)

Under UACC-257: GI50 value of `CN(C(=O)[C@@H](NC(=O)OC(C)(C)C)c1ccccc1)[C@H]1CCCC[C@@H]1N1CCCC1` ? 72.6 µM (inactive)

One more molecule: `O=C(CCCCCCCCC(=O)OCCCn1cc(C(=O)NC(=O)OCc2ccccc2)c(=O)[nH]c1=O)OCCCn1cc(C(=O)NC(=O)OCc2ccccc2)c(=O)[nH]c1=O` > 100 µM (inactive)

Moving on to the next molecule: `CN1C2CCC1CN(CCOC(c1ccc(F)cc1)c1ccc(F)cc1)C2` 19.1 µM (inactive)

# repeat for `N#CC1(CCCCl)CCCCC1` > 100 µM (inactive)

---

Items are presented alongside their recorded GI50.
tested on: HOP-62; experiment: NCI tumour cell line growth inhibition, 48 h
Calls of active or inactive are those of the source. Rule as the data show it: active = GI50 up to about 1.1 µM and inactive = higher.

COc1ccc(C2=NN(C(C)=O)c3nc4ccccc4nc3O2)cc1 | 23.1 µM (inactive)
c1ccc(COCC23CCN(Cc4ccccc4)C(CC(OCc4ccccc4)C2)S3)cc1 (stereo not given) | 65.9 µM (inactive)
Nc1c(S(=O)(=O)O)cc(S(=O)(=O)O)c2ccc(/N=N/c3ccccc3)c(O)c12 | > 100 µM (inactive)
CCOC(=O)CCC(NC(=O)c1ccc(Nc2nc3ccccc3n3cccc23)cc1)C(=O)OCC (stereo not given) | 23.7 µM (inactive)
C/C(=N\O)c1cccc[n+]1Cc1ccccc1 | > 100 µM (inactive)
Cc1c(C)c(C)c(CSC(=N)N)c(C)c1C | 15.5 µM (inactive)
N#Cc1ncn(-c2ccccc2)c1N | > 100 µM (inactive)
COC(=O)CSc1nc2[nH]c(SC)c(C(N)=O)c2c(=O)n1-c1ccccc1 | > 10 µM (inactive)
O=C(CCCCCCCCC(=O)OCCCn1cc(C(=O)NC(=O)OCc2ccccc2)c(=O)[nH]c1=O)OCCCn1cc(C(=O)NC(=O)OCc2ccccc2)c(=O)[nH]c1=O | > 100 µM (inactive)

Any idea what its GI50 is? The compound is `CNc1ccc(C)cc1S(=O)(=O)c1ccccc1[N+](=O)[O-]` 58.9 µM (inactive)

---

system: UACC-62; experiment: NCI tumour cell line growth inhibition, 48 h
Activity calls are given as the source filed them. Cut-off read from the data, not from the text of the source: active = GI50 up to about 1.1 µM and inactive = higher.
Measured Metric: GI50

CC(C)(C)n1c(=O)n2n(c1=O)Cc1cccc3cccc(c13)C2 | 24 µM (inactive)
NC1=Nc2ncccc2C(=O)NN1 | > 10 µM (inactive)
CCCCn1c(C)c(C(=O)OCC)c2cc(OCc3ccc(C(=O)Nn4c(C)ccc4C)cc3)c(Br)cc21 | > 100 µM (inactive)

GI50 for `CCCCCCCCCCn1cccc1/C=C/c1ccc(/C=C/c2cccn2CCCCCCCCCC)cc1` ? > 100 µM (inactive)

Another compound: Clc1ccc(C2SCc3nc4ccccc4n32)c(Cl)c1 (stereo unspecified) 17.7 µM (inactive)

---

tested on: IGROV-1; test: NCI tumour cell line growth inhibition, 48 h
Calls of active or inactive are those of the source. Rule as the data show it: active = GI50 up to about 1.1 µM and inactive = higher.
Form field: GI50 (one value per entry).

Tell me the measured GI50 of `CC(C)=CCC[C@@H](C)C1=C(O)C(=O)C(C)=C(Nc2ccccc2Br)C1=O` , please. 8.69 µM (inactive)

// next record `Cn1cc(-c2n[nH]c(-c3ccc(Cl)cc3)nc2=O)c2ccccc21` 4.58 µM (inactive)

Now consider `CC1(C)[C@H]2Cc3cc(-c4cc5c(cn4)[C@@H]4C[C@H]([C@@H]5[C@@H]5c6cc(-c7cc8c(cn7)[C@@H]7C[C@H](C8)C7(C)C)ncc6[C@@H]6C[C@H]5C6(C)C)C4(C)C)ncc3[C@@H]1C2` and answer again. > 100 µM (inactive)

// next record CC(C)[Si]1(C(C)C)OCC2OC(n3ccc(=O)[nH]c3=O)C([Se]c3ccccc3)C2O[Si](C(C)C)(C(C)C)O1 (centres undefined) 2.44 µM (inactive)

---

tested on: MOLT-4; assay: NCI tumour cell line growth inhibition, 48 h
The source made the active and inactive calls. Cut-off read from the data, not from the text of the source: active = GI50 up to about 1.1 µM and inactive = higher.
Mark one answer only. Choices: TRUE = active, FALSE = inactive

Worked examples, 4 compounds total:
O=c1c(Sc2c(O)c3ccccc3c3ccccc3c2=O)c(O)c2ccccc2c2ccccc12 | FALSE
COC(=O)C1CCC(=S)N1C(=O)OCc1ccccc1 (stereo unspecified) | FALSE
CCOC(=O)C1(C(=O)OCC)C[C@]23OCCC(=O)[C@H]2[C@H]2C(=O)OC(C)(C)O[C@]23C1 | FALSE
O=C(Nc1ccccc1)N1C(c2ccccc2)=N[C@@H](c2ccccc2)[C@@H]1c1ccccc1 | FALSE

// param item: `CC(C)(C)CC(C)(C)c1cc2c(O)c(c1)Cc1cc(C(C)(C)CC(C)(C)C)cc(c1O)Cc1cc(C(C)(C)CC(C)(C)C)cc(c1O)Cc1cc(C(C)(C)CC(C)(C)C)cc(c1O)Cc1cc(C(C)(C)CC(C)(C)C)cc(c1O)Cc1cc(C(C)(C)CC(C)(C)C)cc(c1O)C2` ; yields the recorded call FALSE

Next compound up: CCOC1OC(CO[Si](C)(C)C(C)(C)C)C(O)CC1n1ccc(=O)[nH]c1=O (stereo unspecified) FALSE

And for `CCCCc1ccc(Nc2nc(N)c3[nH]cnc3n2)cc1` ? TRUE

# iterate: `Cc1nc2c(=S)[nH]ncc2[nH]1` FALSE

Continue with COC12OCCN(C)C1=CC(=O)C1=NNC(C)C12 (stereo unspecified) FALSE

Note, next up: `CCSC1=C(C)N(/C=N/C(C)(C)C)CC1` FALSE

Moving on to `c1ccc(Nc2nnc(-c3nsc4ccccc34)o2)cc1` FALSE

---

tested on: K562; experiment: NCI tumour cell line growth inhibition, 48 h
Calls of active or inactive are those of the source. Rule as the data show it: active = GI50 up to about 1.1 µM and inactive = higher.
Measured Metric: GI50

COc1ccc(C(=O)C=C2NCCN2)cc1 | > 100 µM (inactive)
O=C(O)C12C3CCCC1C2CC3 (stereo not drawn) | > 100 µM (inactive)
CCOC(=O)C1=C(c2ccccc2)N(C(C)=O)Cc2ccccc21 | 14.5 µM (inactive)
COc1cc2c(cc1OC)C1Cc3cc(OC)c(OC)cc3C(C2)O1 | 46.7 µM (inactive)
CCCN(CCC)c1c([N+](=O)[O-])cc(C(=O)N(CC)CC)cc1[N+](=O)[O-] | 12.6 µM (inactive)
CO[C@H]1C=C[C@]23c4cc5c(cc4CN(CC2O)[C@@H]3C1)OCO5 (stereo partly drawn) | 2.04 µM (inactive)
CCOC(=O)/C=C(\C(=O)OCC)n1cnc2c(N)ncnc21 | 1.99 µM (inactive)
C/C(=N\NC(=O)CC#N)c1c(O)cc(C)oc1=O | > 100 µM (inactive)

What measured GI50 goes with c1ccc(COCC23CCN(Cc4ccccc4)C(CC(OCc4ccccc4)C2)S3)cc1 (stereo not drawn) ? 31 µM (inactive)

Please give the result for `NC1=Nc2ncccc2C(=O)NN1` too. > 10 µM (inactive)

Consider next the compound C=C1CCCCCCCCCCC12SCCC2CCCCSC (stereo not drawn) in the same way. 22.9 µM (inactive)

Next entry: `c1ccc2c(c1)cc1ccc3cccc4ccc2c1c34` > 100 µM (inactive)

Try COC(=O)C1CCC(=S)N1C(=O)OCc1ccccc1 (stereo not drawn) next. > 100 µM (inactive)

And the next one, `Cc1[nH]c2ncn(/N=C/c3ccccc3)c(=N)c2c1Cc1ccccc1` ? > 100 µM (inactive)
